- systemName: CphA (Aeromonas hydrophila, UniProt P26918)
- Sequence (P26918 28-254): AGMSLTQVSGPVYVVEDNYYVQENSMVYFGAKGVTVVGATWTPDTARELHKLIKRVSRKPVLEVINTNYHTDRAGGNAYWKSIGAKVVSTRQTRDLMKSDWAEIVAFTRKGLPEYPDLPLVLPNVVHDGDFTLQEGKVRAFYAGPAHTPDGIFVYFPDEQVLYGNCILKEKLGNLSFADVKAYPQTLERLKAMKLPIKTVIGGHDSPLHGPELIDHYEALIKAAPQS
- procedureText: CphA inhibition assay with nitrocefin as substrate
- Format: biochemical
Reported IC50 values are given for each entry in this list.
attributeMeasured: IC50 (µM)

>>> df
                                   compound  attributemeasured  recordedmeasurement
0  OB(O)c1cc(Cl)cc(Cl)c1 [Compound 1, 3,5-Dichlorophenylboronic Acid]               IC50                  531
1  Nc1ccc(Oc2c(Cl)cc(B(O)O)cc2Cl)cc1Cl [ACP-DCPBA]               IC50                 90.2
